# Tested on: HIV-1
# methodDescription: microbe, parasite or virus in culture
# measurementParameters: read-out: HIV1 CEM: EC50 for inhibition of HIV-1 in CEM cells; Table 6; mean of two or more repeat experiments
Where a name gives a salt, the structure may show the parent alone.
readoutType: log10(EC50) (log10 of the value in µM)
Answers are given as log10 of EC50 in µM.

CCCCCC(=O)OP(=O)(O)OC[C@@H]1C=C[C@H](n2cc(C)c(=O)[nH]c2=O)O1 [Compound 1217, phosphate ammonium salt] = 0.15
Cc1cn(C2C=CC(COP(=O)(O)NC(CCC(=O)O)C(=O)O)O2)c(=O)[nH]c1=O (centres unmarked) = 0.93
Cc1cn(C2C=CC(COP(=O)(Oc3ccccc3)N3CCCC3C(=O)OCc3ccccc3)O2)c(=O)[nH]c1=O (centres unmarked) = 1.54
COC(=O)C(Cc1ccccc1)NP(=O)(OC[C@@H]1C=C[C@H](n2cc(C)c(=O)[nH]c2=O)O1)Oc1ccccc1 (some centres unmarked) = -0.10
Cc1cn([C@H]2C=C[C@@H](COP(=O)(O)NC(Cc3ccccc3)C(=O)O)O2)c(=O)[nH]c1=O (some centres unmarked) = 0.54

So for CC(NP(=O)(OCC1C=CC(n2ccc(=O)[nH]c2=O)O1)Oc1ccccc1)C(=O)OCc1ccccc1 (centres unmarked) , the logged log10(EC50) turned out to be 1.36

// field: log10(EC50); key: CSCC[C@H](NP(=O)(O)OC[C@@H]1C=C[C@H](n2cc(C)c(=O)[nH]c2=O)O1)C(=O)O ; value = 0.10

The molecule identified as CCCCNP(=O)(OCC1C=CC(n2cc(C)c(=O)[nH]c2=O)O1)Oc1ccccc1 (centres unmarked) registered its log10(EC50) at 2.15
